Reported TGI by item:
# Test system: NCI-H460 lung
# assay text: NCI tumour cell line growth inhibition, 48 h

# annotated cases, reported TGI shown
compound: COC(=O)C1CCC(=O)N1C(c1ccc2c(c1)OCO2)c1ccc2c(c1)OCO2 (centres undefined)
TGI: > 100 µM

compound: CC1=C(c2cc(C(=O)Nc3nccs3)nc(NC#N)n2)Sc2ccccc2N1
TGI: > 100 µM

compound: CN(C)/C=N/S(=O)(=O)c1nn2c(C=O)c(-c3ccc(-c4ccc([N+](=O)[O-])cc4)o3)nc2s1
TGI: 8.42 µM

Any idea what its TGI is? The compound is Oc1cc2c(cc1O)-c1[nH]ncc1CC2
> 100 µM

Any idea what its TGI is? The compound is CC([O-])C(=O)[O-].NCC1CCC1CN.[Pt+4] (centres undefined)
> 10 µM

Any idea what its TGI is? The compound is CCCCP(CCCC)(CCCC)=C(C(=O)OC)C(C(=O)OC)=C1SC(C(=O)OC)=C(C(=O)OC)S1
35.9 µM

Any idea what its TGI is? The compound is CNC1C(OC2C(OC3C(O)C(O)C(O)C(O)C3O)OC(C)C2(O)CO)OC(CO)C(O)C1O (centres undefined) (tested in a mixture with another compound)
> 100 µM

Any idea what its TGI is? The compound is COC(Cc1ccccc1)NC(C)=O (centres undefined)
> 100 µM

Any idea what its TGI is? The compound is O=C(Nc1c(Cl)cc([N+](=O)[O-])cc1Cl)/C(=N\Nc1cccc(Cl)c1)c1c(O)c2ccccc2oc1=O
> 100 µM

Any idea what its TGI is? The compound is CCOC(=O)C1(Cc2ccccc2)Cc2ccccc2C1=O (centres undefined)
> 100 µM

====

Reported TGI by item:
# Tested on: A498 renal
# assay text: NCI tumour cell line growth inhibition, 48 h
Numeric only. Scale: µM

# annotated cases, reported TGI shown
compound: O=c1cccc(C#CC#C/C=C/CO)o1
measure: TGI
value unit: µM
result: 22.7
//
compound: CCN(CC)CCOc1ccc(C(=C2CCCCC2)c2ccc(OCCN(CC)CC)cc2)cc1
measure: TGI
value unit: µM
result: 3.8
//
compound: O=C1C[C@H]2[C@H](c3ccc(Br)cc3)[C@H]3C(=O)c4ccccc4NC(=O)[C@@H]3[C@@]2(O)c2ccccc2N1
measure: TGI
value unit: µM
result: 78.8
//
compound: Cc1cc2c(cc1C)[n+](=O)c(C(=O)/C=C/c1ccccc1Cl)c(C)n2[O-]
measure: TGI
value unit: µM
result: 96.7

Here is another compound to look at.
Short answer please: TGI, A498 renal, entry CC(C)(C)NC1C2CCC(C)(C1O)C2(C)C (stereo not given)
5.19

====

# Test system: HOP-62 NSCLC
# assay text: NCI tumour cell line growth inhibition, 48 h
Reported TGI by item:

# annotated cases, reported TGI shown
molecule: COc1ccc([C@@H]2CC(=O)NCCCCNCCCN2)cc1
TGI: > 100 µM

molecule: Nc1c(C(=O)Nc2ccccc2)sc2nc3c(cc12)CCCC3
TGI: > 67.6 µM

molecule: COc1cc(NC(N)=NCCC(C)(C)c2ccc(C(F)(F)F)cc2)ncc1C#N
TGI: 3.25 µM

molecule: CN1CCN(c2ccc(-n3cc(C(=O)O)c(=O)c4cc(F)c(N5CCN(C)CC5)cc43)nc2)CC1
TGI: > 100 µM

molecule: CCOP(=O)(OCC)/C(C#N)=C/c1c(C)[nH]c2ccccc12
TGI: > 100 µM

Any idea what its TGI is? The molecule is C=C1C(=O)OC2/C=C(\C)C3OC3/C=C(/C(=O)OC)C(OC(C)=O)C(OC(=O)C(C)(O)C(C)OC(C)=O)C12 (stereo not given)
37.5 µM

Any idea what its TGI is? The molecule is CCCCCCCC/C=C/CCCCCCCC1CC(O)C(=O)O1 (stereo not given)
> 100 µM

Any idea what its TGI is? The molecule is Nc1nc2c(c3cnccc13)C(c1cccc(Cl)c1)Cc1cnccc1-2 (stereo not given)
16.3 µM

Any idea what its TGI is? The molecule is COc1ccc(C(=O)O)c(Cc2ccc3ccccc3c2)c1
> 100 µM

Any idea what its TGI is? The molecule is CCCCCC(/C=N/N)C(O)(C(F)(F)F)C(F)(F)F (stereo not given)
> 10 µM

====

Reported TGI by item:
# Test system: K-562 leukemia
# assay text: NCI tumour cell line growth inhibition, 48 h

# annotated cases, reported TGI shown
compound: CC(C)(C)NC1C2CCC(C)(C1O)C2(C)C (stereo unspecified)
TGI: > 100 µM

compound: CCOP(C)(=O)C(Nc1ccc(F)cc1)c1ccc(F)cc1 (stereo unspecified)
TGI: > 100 µM

compound: Cc1ccccc1/C=C1\CN(C(=O)OC(C)(C)C)C/C(=C\c2ccccc2C)C1=O
TGI: > 100 µM

compound: OCSc1nn(CO)c(=S)s1
TGI: 43.4 µM

Any idea what its TGI is? The compound is CC(C)(O)[C@H](CCO)O[Si](c1ccccc1)(c1ccccc1)C(C)(C)C
23.7 µM

Any idea what its TGI is? The compound is CC/C=C\C/C=C\C[C@H]1C/C=C2/C(=O)C=C[C@H]2C/C=C\CCC(=O)O1
> 14.3 µM

====

Reported TGI by item:
# Tested on: UACC-62 melanoma
# assay text: NCI tumour cell line growth inhibition, 48 h

# annotated cases, reported TGI shown
compound: C[C@]12CC[C@H]3[C@@H](C[C@@H]4N=C(c5ccc(O)cc5)S[C@@]45C[C@H](O)CC[C@]35C)[C@@H]1CC[C@@H]2O
TGI: 7.64 µM
//
compound: O=C(/C(=C/c1cccs1)c1ccccc1)c1ccccc1
TGI: > 100 µM

Short answer please: TGI, UACC-62 melanoma, entry CCOC(=O)C1(Cc2ccccc2)Cc2ccccc2C1=O (configuration not stated)
81.7 µM

Short answer please: TGI, UACC-62 melanoma, entry N=c1oc2c(Cl)cc(Cl)cc2cc1C(=O)Nc1ccccn1
61.4 µM

Short answer please: TGI, UACC-62 melanoma, entry CN1CCN(c2ccc(-n3cc(C(=O)O)c(=O)c4cc(F)c(N5CCN(C)CC5)cc43)nc2)CC1
> 100 µM

Short answer please: TGI, UACC-62 melanoma, entry Cc1ccc(NC(=O)c2nc(S(C)=O)oc2-c2ccc(F)cc2)cc1Nc1nccc(-c2cccnc2)n1 (configuration not stated)
3.38 µM

Short answer please: TGI, UACC-62 melanoma, entry O=C(O)c1cc(Sc2ccc([N+](=O)[O-])c(C(=O)O)c2)ccc1[N+](=O)[O-]
> 100 µM

Short answer please: TGI, UACC-62 melanoma, entry CN1CCCN(C(c2ccccc2)c2ccc(Br)cc2)CC1 (configuration not stated)
4.35 µM

Short answer please: TGI, UACC-62 melanoma, entry CC1=C(C(=O)Nc2ccccc2C)C(c2ccc(C3C(C(=O)Nc4ccccc4C)=CNC=C3C(=O)Nc3ccccc3C)cc2)C(C(=O)Nc2ccccc2C)=C(C)N1
31.9 µM

Short answer please: TGI, UACC-62 melanoma, entry CCN(CC)CC(O)C1CCC(c2ccccc2)CC1 (configuration not stated)
30.9 µM

====

Reported TGI by item:
# System: HCC-2998 colon
# assay text: NCI tumour cell line growth inhibition, 48 h

compound: C[C@]12CCC(=O)C=C1CC[C@@H]1C2CC[C@]2(C)Nc3c(ncn3-c3ccc(F)cc3)CC12 (some centres undefined)
TGI: 88.8 µM

compound: N/N=C(\C(=O)Nc1ccc([N+](=O)[O-])cc1)C(C1=Nc2cc([N+](=O)[O-])ccc2NC1)[N+](=O)[O-] (centres undefined)
TGI: > 100 µM

compound: Cc1cc(C#N)c(Nc2c(C)cccc2[N+](=O)[O-])s1
TGI: > 100 µM

Here is another compound to look at.
Short answer please: TGI, HCC-2998 colon, entry C[C@]12CC[C@H]3[C@@H](C[C@@H]4N=C(c5ccc(O)cc5)S[C@@]45C[C@H](O)CC[C@]35C)[C@@H]1CC[C@@H]2O
> 100 µM

====

# Tested on: MDA-MB-435
# assay text: NCI tumour cell line growth inhibition, 48 h
Reported TGI by item:

compound: O=S(=O)(NCCCNc1cc(-c2cn(-c3ccccc3)nc2-c2cccc(O)c2)ccn1)c1ccc(Cl)cc1
result: 3.2 µM

Short answer please: TGI, MDA-MB-435, entry CCN(CC(COc1ccc2c(c1)[n+]([O-])nc(N)[n+]2[O-])OC(C)=O)C(C)=O (stereo unspecified)
> 100 µM

Short answer please: TGI, MDA-MB-435, entry COc1ccc(CNc2nc(NCc3ccc(OC)cc3)c3n[nH]c(C(C)C)c3n2)cc1
11.1 µM

Short answer please: TGI, MDA-MB-435, entry COc1ccc(/C=C/C(=O)c2ccc(Nc3ccnc4cc(Cl)ccc34)cc2)cc1
> 100 µM

Short answer please: TGI, MDA-MB-435, entry CCn1cnc2c(NC(C)=O)ncnc21
> 100 µM

Short answer please: TGI, MDA-MB-435, entry Cc1cc(-c2nc3cc(F)c(F)cc3s2)ccc1N
> 100 µM
